As shown below, each of these sequences has a reported shrunken log2 fold change value.
# Tested on: Escherichia coli TOP10
# methodNotes: shrunken log2 fold change of peptide-encoding DNA abundance (4.5 h post-induction vs induction); higher = less antimicrobial activity (less host growth inhibition)
# assayContext: time post-induction: 4.5 h; library: site-saturation at positions 5, 18, 19, 20
Respond with the number and no other words.

Example cases with answers are listed next.
# sequenceInput, endpointValue
data = [
    ("RRIRERPPRLPRPRPRPKWGPRP", -0.0917),
    ("RRIRDRPPRLPRPRPRPPAIPRP", 0.00372),
    ("RRIRFRPPRLPRPRPRPWIGPRP", -0.398),
]

Given the entry RRIRNRPPRLPRPRPRPECSPRP , report its measured shrunken log2 fold change.
0.079

Param item: RRIRLRPPRLPRPRPRPNGFPRP
-0.27

====

# System: Escherichia coli TOP10
# methodNotes: shrunken log2 fold change of peptide-encoding DNA abundance (4.5 h post-induction vs induction); higher = less antimicrobial activity (less host growth inhibition)
# assayContext: time post-induction: 4.5 h; library: site-saturation at positions 5, 18, 19, 20
As shown below, each of these sequences has a reported shrunken log2 fold change value.
Respond with the number and no other words.

# sequenceInput, shrunken log2 fold change
measured = [
    ("RRIRDRPPRLPRPRPRPLTWPRP", 0.24),
    ("RRIRSRPPRLPRPRPRPCQIPRP", -0.231),
]

// next entry
Given the entry RRIRDRPPRLPRPRPRPKCYPRP , report its measured shrunken log2 fold change.
0.013

====

As shown below, each of these sequences has a reported shrunken log2 fold change value.
# System: Escherichia coli TOP10
# methodNotes: shrunken log2 fold change of peptide-encoding DNA abundance (4.5 h post-induction vs induction); higher = less antimicrobial activity (less host growth inhibition)
# assayContext: time post-induction: 4.5 h; library: site-saturation at positions 5, 18, 19, 20
Respond with the number and no other words.

# sequenceInput, testedOn, endpointValue
data = [
    ("RRIRVRPPRLPRPRPRPSGPPRP", "Escherichia coli TOP10", -0.119),
    ("RRIRLRPPRLPRPRPRPKMTPRP", "Escherichia coli TOP10", -0.181),
    ("RRIRRRPPRLPRPRPRPAEQPRP", "Escherichia coli TOP10", 0.275),
    ("RRIRARPPRLPRPRPRPRGKPRP", "Escherichia coli TOP10", 0.376),
    ("RRIRPRPPRLPRPRPRPMPHPRP", "Escherichia coli TOP10", -0.169),
]

Field: shrunken log2 fold change (Escherichia coli TOP10). Entry: RRIRQRPPRLPRPRPRPFGRPRP
0.037

====

As shown below, each of these sequences has a reported shrunken log2 fold change value.
# System: Escherichia coli TOP10;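 further: peptides expressed intracellularly from a pBAD plasmid library in pooled LB shake-flask culture, induced with 0.3% L-arabinose, DNA abundance read by NGS, three biological replicates, DESeq2 with apeglm shrinkage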
# methodNotes: shrunken log2 fold change of peptide-encoding DNA abundance (4.5 h post-induction vs induction); higher = less antimicrobial activity (less host growth inhibition)
# assayContext: time post-induction: 4.5 h; library: site-saturation at positions 5, 18, 19, 20
Respond with the number and no other words.

# sequenceInput, shrunken log2 fold change
rows = [
    ("RRIRLRPPRLPRPRPRPCGMPRP", -0.0649),
    ("RRIRGRPPRLPRPRPRPYKHPRP", -0.463),
    ("RRIRARPPRLPRPRPRPKVAPRP", 0.698),
    ("RRIRMRPPRLPRPRPRPGHFPRP", 0.274),
    ("RRIRYRPPRLPRPRPRPMHHPRP", -0.596),
]

Given the entry RRIRTRPPRLPRPRPRPDRLPRP , report its measured shrunken log2 fold change.
0.0294

Param item: RRIRRRPPRLPRPRPRPKNCPRP
0.0654

Param item: RRIRPRPPRLPRPRPRPWATPRP
-0.213

Param item: RRIRSRPPRLPRPRPRPSCWPRP
0.306

Param item: RRIRTRPPRLPRPRPRPYWPPRP
-0.424

Param item: RRIRIRPPRLPRPRPRPDNRPRP
-0.00277

Param item: RRIRIRPPRLPRPRPRPFNMPRP
-2.55

Param item: RRIRKRPPRLPRPRPRPCDTPRP
0.015
